# Target Entity: T1, MET928 (cMET protein derived from construct 25-928) (human, UniProt P08581 25-928)
# T1 construct: MET ectodomain, residues 1-24 are the leader; produced in Lec 8 cells; background text says the ectodomain is furin-cleaved into alpha (25-307) and beta chains; biotinylated form used in selections; also called MET928 extracellular domain; Met extracellular domain
# T1 sequence (P08581 25-928): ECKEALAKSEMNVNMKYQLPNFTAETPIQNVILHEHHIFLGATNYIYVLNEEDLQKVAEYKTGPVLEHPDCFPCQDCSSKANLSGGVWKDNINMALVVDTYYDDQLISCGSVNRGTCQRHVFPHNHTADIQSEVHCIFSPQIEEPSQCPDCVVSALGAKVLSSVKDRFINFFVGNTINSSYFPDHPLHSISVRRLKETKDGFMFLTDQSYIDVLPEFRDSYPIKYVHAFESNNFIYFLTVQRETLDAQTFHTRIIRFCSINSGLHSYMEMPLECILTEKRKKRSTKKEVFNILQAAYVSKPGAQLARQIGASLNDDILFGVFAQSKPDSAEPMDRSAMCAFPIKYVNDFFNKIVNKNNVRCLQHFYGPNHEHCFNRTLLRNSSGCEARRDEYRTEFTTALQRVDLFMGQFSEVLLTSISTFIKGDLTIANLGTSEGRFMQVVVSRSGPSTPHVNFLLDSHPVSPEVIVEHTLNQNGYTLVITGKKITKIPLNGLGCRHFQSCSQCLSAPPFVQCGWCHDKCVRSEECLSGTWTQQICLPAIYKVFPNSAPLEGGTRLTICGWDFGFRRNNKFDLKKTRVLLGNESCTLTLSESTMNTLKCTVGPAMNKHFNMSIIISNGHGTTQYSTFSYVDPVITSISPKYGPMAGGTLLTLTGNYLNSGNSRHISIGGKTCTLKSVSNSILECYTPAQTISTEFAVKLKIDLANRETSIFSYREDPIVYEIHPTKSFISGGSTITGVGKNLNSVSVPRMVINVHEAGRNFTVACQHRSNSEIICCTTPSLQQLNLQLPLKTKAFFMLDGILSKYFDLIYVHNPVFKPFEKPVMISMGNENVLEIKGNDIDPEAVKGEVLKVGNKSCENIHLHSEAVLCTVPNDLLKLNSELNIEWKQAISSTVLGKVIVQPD
# Procedure Details: Biacore SPR, MET-928 on chip, scFv format
pKd: −log10 of the molar value.
// Not satisfied strictly below 9 in pKd; Satisfied otherwise

Binder	Category
110_A01 scFv (6xHis/tri-Flag tags) (scFv, 7A2 derivative, only VH CDR3 changed; also called 110_A1; not shown: 6xHis/tri-FLAG tags of pSANG10-3F) scFv: QMQLVQSGAEVKKPGAPVKVSCKVSGYTFTDYYMHWVQQAPGKGLEWMGLVDPEDGETIYAEKFQGRVTITADTSTDTAYMELSSLRSEDTAVYYCATDATTPYWFPYLWGQGTLVTVSSLEGGGGSGGGGSGGGASDIQMTQSPSSLSASVGDRVTITCQASQDISNYLNWYQQKPGRAPKVLIYDASNLETGVPSRFSGSGSGTEFTLTISNLRPDDFATYYCQQGDSFPLTFGGGTKVEIK	Satisfied
107_A07 scFv (6xHis/tri-Flag tags) (scFv, 7A2 derivative, only VH CDR3 changed; not shown: 6xHis/tri-FLAG tags of pSANG10-3F) scFv: QMQLVQSGAEVKKPGAPVKVSCKVSGYTFTDYYMHWVQQAPGKGLEWMGLVDPEDGETIYAEKFQGRVTITADTSTDTAYMELSSLRSEDTAVYYCATDATTPYWGMMWWGQGTLVTVSSLEGGGGSGGGGSGGGASDIQMTQSPSSLSASVGDRVTITCQASQDISNYLNWYQQKPGRAPKVLIYDASNLETGVPSRFSGSGSGTEFTLTISNLRPDDFATYYCQQGDSFPLTFGGGTKVEIK	Satisfied

Now consider the entry below.
Exercise: Would you say 7A2 scFv (expressed in E. coli, 6xHis/tri-Flag tags) (scFv, also called 084-G02; antibody 7A2; not shown: 6xHis/tri-FLAG tags of pSANG10-3F) scFv: QMQLVQSGAEVKKPGAPVKVSCKVSGYTFTDYYMHWVQQAPGKGLEWMGLVDPEDGETIYAEKFQGRVTITADTSTDTAYMELSSLRSEDTAVYYCATDATTPYYGMDVWGQGTLVTVSSLEGGGGSGGGGSGGGASDIQMTQSPSSLSASVGDRVTITCQASQDISNYLNWYQQKPGRAPKVLIYDASNLETGVPSRFSGSGSGTEFTLTISNLRPDDFATYYCQQGDSFPLTFGGGTKVEIK shows pKd at minimum 9?
Solution: Not satisfied

Where these numbers come from: patent US20150147274A1
